Biological target: S. pyogenes SKKanGAS, kanamycin survival, BacTiterGlo, 6 h
Assay: S. pyogenes SKKanGAS kanamycin growth inhibitors – SKKanGAS strain, luminescence, dose confirmation, streptokinase promoter inhibitor project, dose response (AID 1902);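 further: lower survival reflects blocked streptokinase promoter driving kanamycin resistance gene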
Calls of active or inactive are those of the source.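 How the source made its calls: active means EC50 no more than a set limit of log units above the highest dose; inactive means the rest.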
EXPERIMENTAL_ENDPOINT: EC50

Record excerpt, results attached:
1) Cc1n[nH]c(=O)c2c(NC(=O)CSc3nnnn3-c3ccccc3)oc(C)c12
> 15 µM (inactive)
2) CCn1c(=O)c(C(=O)NNC(=O)c2ccccc2F)c(O)c2ccccc21
3.17 µM
3) O=C(Nc1ccc(Br)cc1C(=O)O)c1ccc2c(c1)C(=O)N(Cc1ccccc1)C2=O
1.15 µM
4) Cc1cc(COC(=O)C2N3C(=O)[C@@H](NC(=O)COc4ccccc4)[C@H]3SC2(C)C)on1 (stereo not given in full)
0.119 µM
5) CCN1CCN(Cc2ccc(NC(=O)c3cc(NC(=O)c4cc(-c5ccc(OC)cc5)n[nH]4)cc(OC)c3)cc2C(F)(F)F)CC1
4.26 µM

q: Entry CCOC(=O)c1sc(=S)n2c1[nH]c(=O)c1ccc(C(=O)OC)cc12 : reported EC50 = ?
a: 3.81 µM

q: Similarly, Oc1[nH]c2ccccc2c1N=NC(=S)NCCc1ccccc1 ?
a: 4.39 µM

q: Similarly, CCCC(=O)Nc1ccc2c(c1)nc(CCNC(=O)c1ccccc1)n2C ?
a: > 15 µM (inactive)
